# key: entry, value: Kd
# MEASURED_TARGET: T1, EsCas13d, nuclease-dead (Eubacterium siraeum, UniProt B0MS50, R295A;H300A;R849A;H854A)
# T1 sequence: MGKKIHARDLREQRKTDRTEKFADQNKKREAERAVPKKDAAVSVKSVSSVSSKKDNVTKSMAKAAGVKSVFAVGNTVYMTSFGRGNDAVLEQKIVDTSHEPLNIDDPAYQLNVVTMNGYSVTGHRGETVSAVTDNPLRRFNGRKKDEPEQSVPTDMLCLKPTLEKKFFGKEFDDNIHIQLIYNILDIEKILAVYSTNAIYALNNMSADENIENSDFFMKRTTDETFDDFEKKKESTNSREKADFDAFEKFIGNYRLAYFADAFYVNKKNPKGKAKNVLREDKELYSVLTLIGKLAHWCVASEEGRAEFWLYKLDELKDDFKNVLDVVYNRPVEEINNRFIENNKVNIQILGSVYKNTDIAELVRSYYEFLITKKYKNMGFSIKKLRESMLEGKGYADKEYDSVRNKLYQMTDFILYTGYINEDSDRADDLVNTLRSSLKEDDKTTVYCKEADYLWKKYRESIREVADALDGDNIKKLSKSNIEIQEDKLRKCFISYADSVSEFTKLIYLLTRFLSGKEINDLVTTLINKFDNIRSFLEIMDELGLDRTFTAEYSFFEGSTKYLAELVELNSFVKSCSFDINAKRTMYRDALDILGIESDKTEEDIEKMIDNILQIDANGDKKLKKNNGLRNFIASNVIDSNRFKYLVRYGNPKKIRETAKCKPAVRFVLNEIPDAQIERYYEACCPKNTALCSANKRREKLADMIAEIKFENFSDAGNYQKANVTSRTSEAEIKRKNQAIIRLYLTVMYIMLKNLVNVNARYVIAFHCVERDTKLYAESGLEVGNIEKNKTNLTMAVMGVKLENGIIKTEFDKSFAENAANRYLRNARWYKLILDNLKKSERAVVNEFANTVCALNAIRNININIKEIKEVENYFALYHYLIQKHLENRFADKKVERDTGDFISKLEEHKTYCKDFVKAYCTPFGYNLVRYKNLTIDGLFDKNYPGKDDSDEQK
# METHOD_SUMMARY: crRNA (strand 1, pre-loaded); Mg2+; 40 mM Tris-HCl pH 7.5, 150 mM NaCl, 6 mM MgCl2, 1 mM DTT, 0.1% Tween-20, 0.2 mg/ml BSA; 25 C; 10 min per concentration, then washed
# CONDITIONS: tags: His6-TwinStrep-SUMO cleaved; N-terminal SNAP kept (SNAP-Surface 488); label: 3' end held by stalled T7 RNA polymerase
ENDPOINT: Kd (nM)

- target 2 MT 5'PFS UUA 3'PFS CAU (mixed) RNA 1: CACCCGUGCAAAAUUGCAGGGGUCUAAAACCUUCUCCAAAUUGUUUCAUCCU RNA 2: GGGAAUGGAUCCACAUCUACGAAUUCUUAAGGAUGAAACAAUUUGGAGAAGCAUAGAUCGGAAGAGCACACGU: 14.3
- target 1 insG 3' of 18,insC 3' of 3 (mixed) RNA 1: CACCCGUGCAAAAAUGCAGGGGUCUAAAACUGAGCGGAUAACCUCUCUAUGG RNA 2: GGGAAUGGAUCCACAUCUACGAAUUCGUACCAUAGGAGAGGUUAUCCGCUCCACCGAGAUCGGAAGAGCACACGU: 80
- target 3 U2C (mixed) RNA 1: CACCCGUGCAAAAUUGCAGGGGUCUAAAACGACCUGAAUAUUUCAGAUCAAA RNA 2: GGGAAUGGAUCCACAUCUACGAAUUCGUUUUUGAUCUGAAAUAUUCAGGCCUGCAGAUCGGAAGAGCACACGU: 88.5
- target 1 MT 5'PFS UUA 3'PFS AAC (mixed) RNA 1: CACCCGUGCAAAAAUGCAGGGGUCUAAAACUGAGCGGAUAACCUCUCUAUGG RNA 2: GGGAAUGGAUCCACAUCUACGAAUUCUUACCAUAGAGAGGUUAUCCGCUCAAACAGAUCGGAAGAGCACACGU: 34
